- System: human monoclonal antibody CRJA
- Assay type: binding
The entries below come with measured Binding of CRJA to linear peptide (PEPSCAN-ELISA signal) values attached.
PARAMETER: Binding of CRJA to linear peptide (PEPSCAN-ELISA signal)

>  <CHAIN>
TWNEILPSKGCLRVG

>  <SYSTEM UNDER TEST>
human monoclonal antibody CRJA

>  <MEASUREMENT>
93

$$$$
>  <CHAIN>
FPIYTILDKLGPWSP

>  <SYSTEM UNDER TEST>
human monoclonal antibody CRJA

>  <MEASUREMENT>
88

$$$$
>  <CHAIN>
DEIEHLVVEELVRKR

>  <SYSTEM UNDER TEST>
human monoclonal antibody CRJA

>  <MEASUREMENT>
90

$$$$
>  <CHAIN>
EMQSSLLQQHMELLE

>  <SYSTEM UNDER TEST>
human monoclonal antibody CRJA

>  <MEASUREMENT>
94

$$$$
>  <CHAIN>
IILGPDGNVLIPEMQ

>  <SYSTEM UNDER TEST>
human monoclonal antibody CRJA

>  <MEASUREMENT>
80

$$$$
>  <CHAIN>
KLKLCGVLGLRLMDG

>  <SYSTEM UNDER TEST>
human monoclonal antibody CRJA

>  <MEASUREMENT>
101

$$$$
>  <CHAIN>
YKSVRTWNEILPSKG

>  <SYSTEM UNDER TEST>
human monoclonal antibody CRJA

>  <MEASUREMENT>
113

$$$$
>  <CHAIN>
GYVTTTFKRKHFRPT

>  <SYSTEM UNDER TEST>
human monoclonal antibody CRJA

>  <MEASUREMENT>
87

$$$$
>  <CHAIN>
CTGVVTEAENYTNFV

>  <SYSTEM UNDER TEST>
human monoclonal antibody CRJA

>  <MEASUREMENT>
89

$$$$
>  <CHAIN>
PIYTILDKLGPWSPI

>  <SYSTEM UNDER TEST>
human monoclonal antibody CRJA

>  <MEASUREMENT>
143

$$$$
>  <CHAIN>
VADLDPYDRSLHSRV

>  <SYSTEM UNDER TEST>
human monoclonal antibody CRJA

>  <MEASUREMENT>
92

$$$$
>  <CHAIN>
RAAYNWKMAGDPRYE

>  <SYSTEM UNDER TEST>
human monoclonal antibody CRJA

>  <MEASUREMENT>
92

$$$$
>  <CHAIN>
SLVIISPSVADLDPY

>  <SYSTEM UNDER TEST>
human monoclonal antibody CRJA

>  <MEASUREMENT>
88

$$$$
>  <CHAIN>
AVSSTYCSTNHDYTI

>  <SYSTEM UNDER TEST>
human monoclonal antibody CRJA

>  <MEASUREMENT>
102

$$$$
>  <CHAIN>
SLLQQHMELLESSVI

>  <SYSTEM UNDER TEST>
human monoclonal antibody CRJA

>  <MEASUREMENT>
108

$$$$
>  <CHAIN>
LCGVLGLRLMDGTWV

>  <SYSTEM UNDER TEST>
human monoclonal antibody CRJA

>  <MEASUREMENT>
111

$$$$
>  <CHAIN>
SLHNPYPDYRWLRTV

>  <SYSTEM UNDER TEST>
human monoclonal antibody CRJA

>  <MEASUREMENT>
87

$$$$
>  <CHAIN>
LSHLRKLVPGFGKAY

>  <SYSTEM UNDER TEST>
human monoclonal antibody CRJA

>  <MEASUREMENT>
93

$$$$
>  <CHAIN>
IKMNGFTCTGVVTEA

>  <SYSTEM UNDER TEST>
human monoclonal antibody CRJA

>  <MEASUREMENT>
88

$$$$
>  <CHAIN>
SKGSETCGFVDERGL

>  <SYSTEM UNDER TEST>
human monoclonal antibody CRJA

>  <MEASUREMENT>
104

$$$$
>  <CHAIN>
VTEAENYTNFVGYVT

>  <SYSTEM UNDER TEST>
human monoclonal antibody CRJA

>  <MEASUREMENT>
79

$$$$
>  <CHAIN>
LVNLHDFRSDEIEHL

>  <SYSTEM UNDER TEST>
human monoclonal antibody CRJA

>  <MEASUREMENT>
106

$$$$
>  <CHAIN>
NYTNFVGYVTTTFKR

>  <SYSTEM UNDER TEST>
human monoclonal antibody CRJA

>  <MEASUREMENT>
97

$$$$
>  <CHAIN>
GKCSGVAVSSTYCST

>  <SYSTEM UNDER TEST>
human monoclonal antibody CRJA

>  <MEASUREMENT>
103

$$$$
>  <CHAIN>
RWLRTVKTTKESLVI

>  <SYSTEM UNDER TEST>
human monoclonal antibody CRJA

>  <MEASUREMENT>
72

$$$$
>  <CHAIN>
LHSRVFPSGKCSGVA

>  <SYSTEM UNDER TEST>
human monoclonal antibody CRJA

>  <MEASUREMENT>
134

$$$$
>  <CHAIN>
PPDQLVNLHDFRSDE

>  <SYSTEM UNDER TEST>
human monoclonal antibody CRJA

>  <MEASUREMENT>
118

$$$$

Data provenance: patent US20060263802A1
